Every entry's value here was drawn from PubChem BioAssay (NCI).

- System: CAKI-1 renal
- assay_comment: NCI tumour cell line growth inhibition, 48 h
This section presents compounds with their documented TGI values.
readout_name: TGI

compound=Cc1cc2c(cc1C)[n+](=O)c(N1CCN(c3ccc([N+](=O)[O-])cc3)CC1)c(C#N)n2[O-] result="> 100 µM"
compound=COC(=O)N/N=C/c1oc(-c2ccccc2)c(-c2ccccc2)c1[N+](=O)[O-] result="> 100 µM"
compound=CC(C)N=C(NC#N)NS(=O)(=O)c1cnccc1Nc1ccc(Cl)cc1 result="> 100 µM"
compound=O=C1/C(=C\c2coc3ccccc3c2=O)c2ccccc2N1c1c(Cl)cccc1Cl result="> 100 µM"
compound=CNc1ccc(-c2cc(=O)oc3ccc(Cl)cc23)cc1 result="> 100 µM"
compound=O=C(O)C#CCO result="> 100 µM"
compound="CC1(C)C[C@H]2C=C(C=O)[C@]34C[C@]3(C(=O)OC4O)[C@H]2C1 (some centres not stated)" result="5.04 µM"
compound="CCOC(=O)c1cc(C2CCN(Cc3ccccc3)C2=O)c(C(=O)C(=[N+]=[N-])C(C)=O)[nH]1 (configuration not stated)" result="> 100 µM"
compound=Cc1cccc2c(N)c3cccc(C(=O)NCCN(C)C)c3nc12 result="1.08 µM"
compound=COC(=O)NN=C(c1ccc(Cl)cc1)c1ccc(Cl)cc1 result="> 100 µM"
compound=N#CC(C#N)=C(N)/C(C#N)=C/c1cc(O)c(O)c(Br)c1 result="> 100 µM"
compound=O=C(O)CCCCn1cnc2c(=S)nc[nH]c21 result="> 100 µM"
compound="O=C1CN2C(Cl)(Cl)C2(c2ccccc2)c2cc(Cl)ccc2N1CC(F)(F)F (configuration not stated)" result="> 100 µM"
compound="COc1ccc(N[C@H](CS(=O)c2ccc(C)cc2)C(F)(F)C(F)(F)F)cc1 (some centres not stated)" result="> 100 µM"
compound=c1ccc2c(c1)nc1n2CSC1 result="> 100 µM"
compound=Cc1cc(-c2nc(-c3ccc(OC(F)(F)F)cc3)no2)nn1Cc1ccnc(N2CCN(C3CC3)CC2)c1 result="> 100 µM"
compound=COc1cc2c(cc1OC)C1(c3ccccc3)CN(C2)Cc2cc(OC)c(OC)cc21 result="> 100 µM"
compound="CCN(CC)CCCC(Nc1c2ccc(Cl)cc2nc2ccc(OC)cc12)c1ccc(F)cc1 (configuration not stated)" result="3.79 µM"
compound=CN(C)CCN=Cc1c2ccccc2c(=O)n2c1oc1ccccc12 result="15.2 µM"
compound=O=S1(=O)CS(=O)(=O)OCCCO1 result="> 100 µM"
compound="CC(=O)OC1CCC2(C)C(=CCC3C2CCC2(C)C(C(C)C(=O)O)CCC32)C1 (configuration not stated)" result="> 100 µM"
compound=CCCCNC(=O)Nc1c(C(N)=O)c2n(c1C(=O)OCC)CCCCC2 result="> 100 µM"

---

This section presents molecules with their documented TGI values.
- Test system: UACC-257 melanoma
- assay_comment: NCI tumour cell line growth inhibition, 48 h
readout_name: TGI (µM)

molecule=COc1cc(C(N)=O)cc(NC(=O)/C=C/c2ccccc2)c1OC tested_target="UACC-257 melanoma" operator_symbol=> quantitative_readout=100
molecule=Cc1cc2c(cc1C)[n+](=O)c(C(=O)N1CCN(c3ccc([N+](=O)[O-])cc3)CC1)c(C)n2[O-] tested_target="UACC-257 melanoma" operator_symbol=> quantitative_readout=100
molecule=C/C(=C\CCc1ccoc1)CC/C=C(\C)CCCN1CCC(CO)CC1 tested_target="UACC-257 melanoma" operator_symbol== quantitative_readout=5.12
molecule=Cc1cccc2c(N)c3cccc(C(=O)NCCN(C)C)c3nc12 tested_target="UACC-257 melanoma" operator_symbol== quantitative_readout=0.658
molecule=O=C1c2ccccc2C(=O)N1CCCCCCNOCCCN1C(=O)c2ccccc2C1=O tested_target="UACC-257 melanoma" operator_symbol== quantitative_readout=86
molecule=C#CCNC(=O)CC[C@]1(C)[C@H]2CC[C@@H]3[C@@H]([C@@](C)(O)CCC=C(C)C)CC[C@@]3(C)[C@]2(C)CC[C@H]1C(=C)C tested_target="UACC-257 melanoma" operator_symbol=> quantitative_readout=100
molecule=O=C1/C(=C\c2coc3ccccc3c2=O)c2ccccc2N1c1c(Cl)cccc1Cl tested_target="UACC-257 melanoma" operator_symbol=> quantitative_readout=100
molecule="Nc1ncnc2c1ncn2C1CCC(CO)O1 (stereo unspecified)" tested_target="UACC-257 melanoma" operator_symbol=> quantitative_readout=100
molecule=CC(=O)NCCc1c[nH]c2ccc(Cl)cc12 tested_target="UACC-257 melanoma" operator_symbol=> quantitative_readout=100
molecule="CSc1ccc2c(cc1=O)C(NC(=O)c1ccc(OC(C)=O)cc1)CCc1cc(O)c(O)c(O)c1-2 (stereo unspecified)" tested_target="UACC-257 melanoma" operator_symbol== quantitative_readout=38.9
molecule=c1ccc(-c2nn(-c3ccccc3)[n+](-c3cccc4ccccc34)n2)cc1 tested_target="UACC-257 melanoma" operator_symbol== quantitative_readout=8.18
molecule=CCOC(=O)c1cc(C(=O)c2cc(OC)cc(OC)c2)n2ncc3ccccc3c12 tested_target="UACC-257 melanoma" operator_symbol=> quantitative_readout=100
molecule=CCCN(CCC)CCCNC(=O)c1cc2c(-c3ccc(OC)c(OC)c3)nn(C)c2s1 tested_target="UACC-257 melanoma" operator_symbol== quantitative_readout=34.4
molecule=CC[C@@H](C(=O)[C@@H](C)[C@@H](O)[C@H](C)CCc1ccc(C)c(O)c1C(=O)O)[C@H]1O[C@](CC)([C@H]2CC[C@](O)(CC)[C@H](C)O2)C[C@@H]1C tested_target="UACC-257 melanoma" operator_symbol== quantitative_readout=11.3
molecule=Oc1c(-c2ccccc2)sc2ccccc12 tested_target="UACC-257 melanoma" operator_symbol== quantitative_readout=98.9
molecule=c1ccc2c3c([nH]c2c1)C1c2[nH]c4ccccc4c2CCN1CC3 tested_target="UACC-257 melanoma" operator_symbol== quantitative_readout=28.6
molecule="CC(=O)OC1C(CCl)OC(N=[N+]=[N-])C(OC(C)=O)C1OC(C)=O (stereo unspecified)" tested_target="UACC-257 melanoma" operator_symbol=> quantitative_readout=100
molecule=C=C1Oc2nc3ccccc3c(=O)n2C1(C)C tested_target="UACC-257 melanoma" operator_symbol=> quantitative_readout=100
molecule=CCOC(=O)c1c(C)n2c(=O)cc(C)c3c(OC(C)=O)c(OC(C)=O)cc1c32 tested_target="UACC-257 melanoma" operator_symbol== quantitative_readout=25.3
molecule=COC(=O)NN=C(c1ccc(Cl)cc1)c1ccc(Cl)cc1 tested_target="UACC-257 melanoma" operator_symbol=> quantitative_readout=100
molecule=COC(=O)c1ccc([N+](=O)[O-])c(O)c1 tested_target="UACC-257 melanoma" operator_symbol=> quantitative_readout=100
